// reported IC50 for each item listed
Molecular target: recombinant human HDAC1 (Homo sapiens (Human), UniProt Q13547)
Sequence (Q13547 whole entry): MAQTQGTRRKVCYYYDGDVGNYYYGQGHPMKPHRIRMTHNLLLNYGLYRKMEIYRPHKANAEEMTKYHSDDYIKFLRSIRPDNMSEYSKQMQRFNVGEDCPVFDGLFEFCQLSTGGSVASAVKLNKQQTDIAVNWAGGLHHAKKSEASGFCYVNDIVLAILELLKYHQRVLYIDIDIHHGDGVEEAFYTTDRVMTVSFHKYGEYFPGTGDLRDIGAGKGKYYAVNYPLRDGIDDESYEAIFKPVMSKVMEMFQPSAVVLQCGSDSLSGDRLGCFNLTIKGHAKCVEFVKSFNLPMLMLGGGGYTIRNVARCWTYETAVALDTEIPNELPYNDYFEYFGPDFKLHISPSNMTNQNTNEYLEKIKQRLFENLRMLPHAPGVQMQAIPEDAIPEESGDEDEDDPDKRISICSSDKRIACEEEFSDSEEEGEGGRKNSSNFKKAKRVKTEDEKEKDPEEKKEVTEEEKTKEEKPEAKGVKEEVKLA
Test: Enzymatic screening, HDAC1 inhibition (fluorogenic FdL_G substrate)
Method: For each test compound, 100× concentrated DMSO solutions at 8 doses were prepared and then diluted in assay buffer (25 mM Tris-HCl, pH 8, 130 mM NaCl, 0.05% Tween-20, 10% Glycerol) to obtain 5× concentrated solutions in relation to the final concentrations (typical final concentration range—6.4-200000 nM or 0.18-50000 nM, final DMSO content—1%). […]

- O=C1Nc2ccc(-c3nnn(Cc4ccc(-c5nnc(C(F)F)o5)cn4)n3)cc2NC12CCCC2: > 200 µM
- Cn1c(N)nc2cc(-c3nnn(Cc4cc(F)c(-c5nnc(C(F)F)o5)cc4F)n3)ccc21: > 1000 µM
- Nc1ccc(-c2noc(Cc3ccc(-c4nnc(C(F)F)o4)cc3)n2)cc1: > 1000 µM
- O=C(c1cccc(-c2nnn(Cc3c(F)cc(-c4nnc(C(F)F)o4)cc3F)n2)c1)N1CCOCC1: > 200 µM
- Nc1ccc(-c2cn(C(CCCO)c3ccc(-c4nnc(C(F)F)o4)cc3)nn2)cn1 (stereo not shown): > 1000 µM
- CC1(C)CN(c2cccc(-c3cn(Cc4c(F)cc(-c5nnc(C(F)F)o5)cc4F)nn3)c2)C1=O: > 200 µM
- Nc1ccc(-c2cn(Cc3cc(F)c(-c4nnc(C(F)F)o4)cc3F)nn2)cn1: > 200 µM
- Nc1cccc(-c2cn(Cc3ccc(-c4nnc(C(F)F)o4)cc3)cn2)c1: > 200 µM

Query: For recombinant human HDAC1 (Homo sapiens (Human), UniProt Q13547), give the measured IC50 of the entry FC(F)c1nnc(-c2ccc(Cn3nnc(-c4cccc(-n5cccn5)c4)n3)cc2)o1
Reply: > 200 µM

Query: For recombinant human HDAC1 (Homo sapiens (Human), UniProt Q13547), give the measured IC50 of the entry O=C(Nc1cccc(-c2cnn(Cc3ccc(-c4nnc(C(F)F)o4)cn3)c2)c1)N1CCOCC1
Reply: > 200 µM

Query: For recombinant human HDAC1 (Homo sapiens (Human), UniProt Q13547), give the measured IC50 of the entry CCC[C@H](c1ccc(-c2nnc(C(F)F)o2)cc1)n1cc(-c2ccc(N)nc2)nn1
Reply: > 200 µM

Query: For recombinant human HDAC1 (Homo sapiens (Human), UniProt Q13547), give the measured IC50 of the entry Nc1ccc(-c2noc(C(F)(F)c3ccc(-c4nnc(C(F)F)o4)cc3)n2)cn1
Reply: > 200 µM

Query: For recombinant human HDAC1 (Homo sapiens (Human), UniProt Q13547), give the measured IC50 of the entry CC(C)(C)OC(=O)N1CCC2(CC1)Nc1ccc(-c3cn(Cc4ccc(-c5nnc(C(F)F)o5)cc4)nn3)cc1NC2=O
Reply: > 200 µM

Query: For recombinant human HDAC1 (Homo sapiens (Human), UniProt Q13547), give the measured IC50 of the entry O=C1NCc2ccc(-c3nnn(Cc4ccc(-c5nnc(C(F)F)o5)c(F)c4)n3)cc21
Reply: > 200 µM

Query: For recombinant human HDAC1 (Homo sapiens (Human), UniProt Q13547), give the measured IC50 of the entry Nc1nc2ccc(-c3cn(Cc4ccc(-c5nnc(C(F)F)o5)cc4Cl)nn3)cc2s1
Reply: > 1000 µM

Query: For recombinant human HDAC1 (Homo sapiens (Human), UniProt Q13547), give the measured IC50 of the entry CC(c1ccc(-c2nnc(C(F)F)o2)c(F)c1)n1cc(-c2cccc(NC(=O)N3CCOCC3)c2)nn1 (stereo not shown)
Reply: > 200 µM

Query: For recombinant human HDAC1 (Homo sapiens (Human), UniProt Q13547), give the measured IC50 of the entry Nc1ccc(-c2cn(C(Cc3ccccc3)c3ccc(-c4nnc(C(F)F)o4)cc3)nn2)cn1 (stereo not shown)
Reply: > 200 µM

Query: For recombinant human HDAC1 (Homo sapiens (Human), UniProt Q13547), give the measured IC50 of the entry Cn1c(N)nc2cc(-c3cn(Cc4ccc(-c5nnc(C(F)F)o5)c(F)c4F)nn3)ccc21
Reply: 168 µM

---

// reported IC50 for each item listed
target: recombinant human HDAC1 (Homo sapiens (Human), UniProt Q13547); experiment: Enzymatic screening, HDAC1 inhibition (fluorogenic FdL_G substrate)

Worked examples follow.
- Nc1ncnc2cc(-c3cn(Cc4ccc(-c5nnc(C(F)F)o5)cc4F)nn3)ccc12: 1000 µM
- NCC(=O)Nc1cccc(-c2cn(Cc3c(F)cc(-c4nnc(C(F)F)o4)cc3F)nn2)c1: > 200 µM
- O=C1NCCc2ccc(-c3nnn(Cc4ccc(-c5nnc(C(F)F)o5)cc4)n3)cc21: > 200 µM

Query: For recombinant human HDAC1 (Homo sapiens (Human), UniProt Q13547), give the measured IC50 of the entry CS(=O)(=O)NCCC(c1ccc(-c2nnc(C(F)F)o2)cc1)c1cn(-c2ccc(N)nc2)nn1 (centres unmarked)
Reply: > 200 µM

Query: For recombinant human HDAC1 (Homo sapiens (Human), UniProt Q13547), give the measured IC50 of the entry NC(=O)c1cccc(-c2nnn(Cc3ccc(-c4nnc(C(F)F)o4)cc3)n2)c1
Reply: > 200 µM

Query: For recombinant human HDAC1 (Homo sapiens (Human), UniProt Q13547), give the measured IC50 of the entry Cn1c(N)nc2cc(-c3nnn(Cc4ccc(-c5nnc(C(F)F)o5)cc4)n3)ccc21
Reply: > 200 µM

---

// reported pIC50 for each item listed
target: recombinant human HDAC6 (Homo sapiens (Human)); assay: Enzymatic screening, HDAC6 inhibition (fluorogenic FdL_G substrate)
A value of pIC50 is the negative decimal logarithm of a concentration given in moles per litre.

Worked examples follow.
• Nc1ncc2cc(-c3nnn(Cc4cc(F)c(-c5nnc(C(F)F)o5)cc4F)n3)ccc2n1 = 7.00
• CNc1ccc2cc(-c3nnn(Cc4ccc(-c5nnc(C(F)F)o5)c(F)c4F)n3)ccc2n1 = 6.87

Query: For recombinant human HDAC6 (Homo sapiens (Human)), give the measured pIC50 of the entry CN1CCN(C(=O)Nc2cccc(-c3cn(Cc4ccc(-c5nnc(C(F)F)o5)cc4)nn3)c2)CC1
Reply: 7.21

---

target: recombinant human HDAC6 (Homo sapiens (Human), UniProt Q9UBN7); experiment: Enzymatic screening, HDAC6 inhibition (fluorogenic FdL_G substrate)
Sequence (Q9UBN7 whole entry): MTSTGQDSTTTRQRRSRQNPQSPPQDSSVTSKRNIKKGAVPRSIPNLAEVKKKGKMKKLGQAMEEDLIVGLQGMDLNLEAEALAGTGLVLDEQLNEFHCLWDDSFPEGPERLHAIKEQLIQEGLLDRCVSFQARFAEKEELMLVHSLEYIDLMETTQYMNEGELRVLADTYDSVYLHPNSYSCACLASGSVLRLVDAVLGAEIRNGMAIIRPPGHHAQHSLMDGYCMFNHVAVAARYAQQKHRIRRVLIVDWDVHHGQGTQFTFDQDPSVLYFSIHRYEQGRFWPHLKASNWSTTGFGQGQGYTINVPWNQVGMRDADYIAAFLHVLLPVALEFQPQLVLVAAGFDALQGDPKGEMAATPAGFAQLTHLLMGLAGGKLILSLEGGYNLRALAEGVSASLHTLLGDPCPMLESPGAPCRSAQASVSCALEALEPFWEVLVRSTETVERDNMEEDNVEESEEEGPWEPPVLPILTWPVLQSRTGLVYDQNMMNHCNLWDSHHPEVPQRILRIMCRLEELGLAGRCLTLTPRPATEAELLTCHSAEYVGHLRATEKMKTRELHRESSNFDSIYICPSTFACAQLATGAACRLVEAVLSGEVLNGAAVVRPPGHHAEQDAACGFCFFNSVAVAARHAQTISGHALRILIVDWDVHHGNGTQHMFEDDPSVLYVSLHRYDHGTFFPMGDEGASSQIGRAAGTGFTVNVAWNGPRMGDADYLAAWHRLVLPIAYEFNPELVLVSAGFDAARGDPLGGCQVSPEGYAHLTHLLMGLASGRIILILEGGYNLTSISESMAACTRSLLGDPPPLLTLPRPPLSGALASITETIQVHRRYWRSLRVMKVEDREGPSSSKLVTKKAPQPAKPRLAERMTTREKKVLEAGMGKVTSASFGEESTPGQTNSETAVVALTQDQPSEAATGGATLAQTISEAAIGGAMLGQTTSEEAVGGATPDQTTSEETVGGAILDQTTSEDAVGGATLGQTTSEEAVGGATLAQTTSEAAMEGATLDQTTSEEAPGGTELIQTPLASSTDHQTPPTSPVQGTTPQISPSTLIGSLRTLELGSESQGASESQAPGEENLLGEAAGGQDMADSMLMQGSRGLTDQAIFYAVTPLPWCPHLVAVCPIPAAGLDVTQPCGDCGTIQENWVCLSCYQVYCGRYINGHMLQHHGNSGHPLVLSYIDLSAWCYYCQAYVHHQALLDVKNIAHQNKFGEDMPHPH
PARAMETER_MEASURED: pIC50
A value of pIC50 is the negative decimal logarithm of a concentration given in moles per litre.

• O=C1Nc2cc(-c3cn(Cc4ccc(-c5nnc(C(F)F)o5)cc4)nn3)ccc2NC12CCNCC2 [compound 277] = 7.14
• Fc1cc(-c2nnn(Cc3ccc(-c4nnc(C(F)F)o4)cc3)n2)ccc1N1CCNCC1 [compound 224] = 6.79
• O=C1CCc2ccc(-c3nnn(Cc4ccc(-c5nnc(C(F)F)o5)cc4)n3)cc21 [compound 203] = 6.93

Query: Give a short answer stating reported pIC50 for Nc1nc2cc(-c3cn(Cc4ccc(-c5nnc(C(F)F)o5)cc4)cn3)ccc2o1 [compd. 309] .
Reply: 7.16

---

test: Stability in human plasma; details: after 4 hours, 37° C.
// reported residual percentage in HUMAN PLASMA for each item listed

Worked examples follow.
• COc1ncc(NCc2ccc(-c3cn(Cc4ccc(-c5nnc(C(F)F)o5)cc4)nn3)cc2)cc1C(N)=O = 92%
• CC(=O)Nc1cccc(-c2cn(Cc3ccc(-c4nnc(C(F)F)o4)cn3)nn2)c1 = 90%

Query: Give a short answer stating reported residual percentage in HUMAN PLASMA for Fc1cc(-c2nnc(C(F)F)o2)cc(F)c1Cn1cc(-c2cccs2)nn1 .
Reply: 88%

Query: Give a short answer stating reported residual percentage in HUMAN PLASMA for CCCCC(c1ccc(-c2nnc(C(F)F)o2)cc1)n1cc(-c2ccc(N)nc2)nn1 (stereo not shown) .
Reply: 90%

Query: Give a short answer stating reported residual percentage in HUMAN PLASMA for CC(=O)Nc1cc(-c2nnn(Cc3ccc(-c4nnc(C(F)F)o4)cc3)n2)cnc1C .
Reply: 88%

Query: Give a short answer stating reported residual percentage in HUMAN PLASMA for CCC[C@@H](c1ccc(-c2nnc(C(F)F)o2)cc1)n1cc(-c2ccc(N)nc2)nn1 [compound 250] .
Reply: 91%

Query: Give a short answer stating reported residual percentage in HUMAN PLASMA for Cn1c(N)nc2cc(-c3cn(Cc4ccc(-c5nnc(C(F)F)o5)cc4)nn3)ccc21 .
Reply: 88%

---

biological target: recombinant human HDAC6 (Homo sapiens (Human)); test: Enzymatic screening, HDAC6 inhibition (fluorogenic FdL_G substrate)
So basically, if IC50 comes in under 60 nM it's label 1, and if it's 60 nM or more it's label 0.

Query: Criterion: IC50 strictly below 60 nM. Is it met by Nc1ccc(-c2cn(C(CCNC(=O)C(F)F)c3ccc(-c4nnc(C(F)F)o4)cn3)nn2)cn1 (stereo not drawn) ?
Reply: label 1

Query: Criterion: IC50 strictly below 60 nM. Is it met by Nc1cc2cc(-c3cn(Cc4ccc(-c5nnc(C(F)F)o5)cc4Cl)nn3)ccc2cn1 ?
Reply: label 0

Query: Criterion: IC50 strictly below 60 nM. Is it met by C[C@@H](c1ccc(-c2nnc(C(F)F)o2)cc1)n1cc(-c2cccc(NC(=O)N3CCOCC3)c2)nn1 (stereo in doubt) ?
Reply: label 1

Query: Criterion: IC50 strictly below 60 nM. Is it met by Nc1ccc(-c2nnn(Cc3ncc(-c4nnc(C(F)F)o4)cn3)n2)cn1 ?
Reply: label 1

Query: Criterion: IC50 strictly below 60 nM. Is it met by O=C(c1cccc(-c2nnn(Cc3ccc(-c4nnc(C(F)F)o4)cc3F)n2)c1)N1CCOCC1 ?
Reply: label 1

Query: Criterion: IC50 strictly below 60 nM. Is it met by Cn1c(Sc2c(F)cc(-c3nnc(C(F)F)o3)cc2F)nnc1-c1ccc(N)nc1 ?
Reply: label 0

Query: Criterion: IC50 strictly below 60 nM. Is it met by Cn1c(N)nc2cc(-c3nnnn3Cc3ncc(-c4nnc(C(F)F)o4)cn3)ccc21 ?
Reply: label 0

Query: Criterion: IC50 strictly below 60 nM. Is it met by Cn1c(=O)[nH]c2cc(-c3nnn(Cc4ccc(-c5nnc(C(F)F)o5)cc4)n3)ccc21 ?
Reply: label 0

Query: Criterion: IC50 strictly below 60 nM. Is it met by O=C(Nc1cccc(-c2cn(Cc3ccc(-c4nnc(C(F)F)o4)cc3)cn2)c1)N1CCOCC1 ?
Reply: label 0
